For reference, the following Ki results for 5-hydroxytryptamine receptor 6 (Homo sapiens) were taken from various sources.
readout kind: Ki (nM)

INSERT INTO measurements (molecule, target_system, measurement_unit, result) VALUES
  ('CCN1CCCC(n2cc(S(=O)(=O)c3ccccc3)c3ccccc32)C1 (stereo not given)', '5-hydroxytryptamine receptor 6 (Homo sapiens)', 'nM', 7.3),
  ('CCn1nc(S(=O)(=O)c2ccccc2)c2cc(N3CCNCC3)ccc21', '5-hydroxytryptamine receptor 6 (Homo sapiens)', 'nM', 2.9),
  ('O=C1Nc2ccccc2C12CCN(CCN1CCN(c3cccc(Cl)c3)CC1)C2 (stereo not given)', '5-hydroxytryptamine receptor 6 (Homo sapiens)', 'nM', 2000),
  ('CN1CCN(c2nc(N)nc(Cc3ccccc3Cl)n2)CC1', '5-hydroxytryptamine receptor 6 (Homo sapiens)', 'nM', 56),
  ('O=S(=O)(c1ccccc1Cl)n1cc(C2=CCCNC2)c2ccccc21', '5-hydroxytryptamine receptor 6 (Homo sapiens)', 'nM', 13),
  ('CCN/C(=N\S(=O)(=O)c1ccc(N)cc1)N1CC2(C=N1)CCCCC2', '5-hydroxytryptamine receptor 6 (Homo sapiens)', 'nM', 7.1),
  ('CCN/C(=N\S(=O)(=O)c1cccc(OC)c1)N1CC2(C=N1)CCCC2', '5-hydroxytryptamine receptor 6 (Homo sapiens)', 'nM', 97.1),
  ('O=S(=O)(c1ccnc2ccccc12)N1CCCCC[C@H]1CCN1CCN(c2nsc3ccccc23)CC1', '5-hydroxytryptamine receptor 6 (Homo sapiens)', 'nM', 623),
  ('CN1CCCC(n2cc(S(=O)(=O)c3c(Cl)nc4sccn34)c3cccnc32)C1 (stereo not given)', '5-hydroxytryptamine receptor 6 (Homo sapiens)', 'nM', 2),
  ('NCCNc1cccc2c(S(=O)(=O)c3cccc4ccccc34)n[nH]c12', '5-hydroxytryptamine receptor 6 (Homo sapiens)', 'nM', 17);
